System: MS2 coat protein
Assay: apparent KD of MS2 coat protein; designed switch direction (-1 OFF switch, 1 ON switch): -1; higher = weaker reporter binding
Settings: Eterna round: R95; input ligand: microRNA oligo, concentration not stated
readoutName: apparent KD of MS2 coat protein (nM)
Response body: numeric value in nM, unit text excluded.

stdin: Identify measured apparent KD of MS2 coat protein corresponding to CUUAAGGCAGGAUAUGCUGUUUGUGACAUGAGGAUCACCCAUGUGAUGCAGUUUGGGUGUGCAGAAGGGCCUGAGU [JR_E5_Sub032] (puzzle: Exclusion 5)
stdout: 71.5

stdin: Identify measured apparent KD of MS2 coat protein corresponding to GAGGCUAAAGGAUAUACAUGAGGAUCACCCAUGUGGAGGAAGGUUAGAUGAGGAGAAGGUAGAAGGUUAGGCGG [JR_Exclu3_Sub094] (puzzle: Exclusion 3)
stdout: 31.1

stdin: Identify measured apparent KD of MS2 coat protein corresponding to UUACUAUGCCGCCUAAUAGCUUUUUGCUCGUCUUAUAUUACAUGAGGAUCACCCAUGUAGAUCAUGUGGCGUGACCU [JL ViennaUCT Maridi mod 3] (puzzle: Sensor v3, turn-off variant 2)
stdout: 42

stdin: Identify measured apparent KD of MS2 coat protein corresponding to GAGUGACAUGAGGAUCACCCAUGUGAGGAUAUCGGACGGACCUUGUUAGCUUCCGCCGCGAGAAGGCACAUCGG [Exclusion 1 V25] (puzzle: Exclusion 1)
stdout: 94.3

stdin: Identify measured apparent KD of MS2 coat protein corresponding to CGGAUGUGAGGAUAUACAUGAGGAUCACCCAUGUGUGCCAGCUAGAUGACUGGCACUUGUAGAAGGCACGUCUG [Mat - Exclusion 3 - Mod of JL D91] (puzzle: Exclusion 3)
stdout: 11.3

stdin: Identify measured apparent KD of MS2 coat protein corresponding to UUACGGUAGAUCGUGGCUUUUUGCUCGUCUUGUGCUACAACAUGAGGAUCACCCAUGUAGAGGUGAUCUAUUGUAUU [Grok-var2-20 mod JAL] (puzzle: Sensor v3, turn-off variant 2)
stdout: 17.8

stdin: Identify measured apparent KD of MS2 coat protein corresponding to GCUUGUAGAGGAUAUACAAGGGCCUUAGCGGAAAACUCCGCACAUGAGGAUCACCCAUGUAGAAGGCUACCACC [Isrianqu] (puzzle: Exclusion 2)
stdout: 15.1

stdin: Identify measured apparent KD of MS2 coat protein corresponding to GAAUACAAGCAAAGAUCCUACAUGAGGAUCACCCAUGUGCUCGUCUUGUAAAGUACUAUCACGAAAGUGAUAGUACA [Mat - Sensor v3 - turn-off var 1 - Eli Mod - D78] (puzzle: Sensor v3, turn-off variant 1)
stdout: 16.9

stdin: Identify measured apparent KD of MS2 coat protein corresponding to UUUUAACAUGAGGAUCACCCAUGUAAGGAUAUGCUAUUUUUUUUUUUUUUUUUUUUUUGCAGAAGGUACAUUUU [My solution] (puzzle: Exclusion 1)
stdout: 21.3

----------
Assign apparent KD of K4 kissing-loop reporter to each entry below.
Tested on: K4 kissing-loop RNA reporter;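 further: bound reporter read as fluorescence of individual clusters on recovered sequencing chips by microscopy, with normalized cluster intensities fitted with a binding model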
Assay: apparent KD of K4 kissing-loop reporter; higher = weaker reporter binding
Conditions: Eterna round: R107; input ligand: theophylline 20 uM
Response body: numeric value in nM, unit text excluded.

stdin: Identify measured apparent KD of K4 kissing-loop reporter corresponding to UAUAUAGUGACGGCCGCCACUAUUGUGAUUUAAUUGUUAGAGUGAUGUUUUGUUGUUUGAUUUUGUAGGACCGGGUUAUAUGUUA [vnbbwzmullin]
stdout: 794

stdin: Identify measured apparent KD of K4 kissing-loop reporter corresponding to GAUUUAGAGGCGGCCGCCACUAGUGAUGUUAGUGAUGUUUGAUACUGAAUAUAUCUGCGAGUAGAUAGGACCGGGCCAGAUGGAG [plmfmullin]
stdout: 179

stdin: Identify measured apparent KD of K4 kissing-loop reporter corresponding to UCUGUUGUAUAUGAUACCAGCAGUGAGAGAUGAGAAGUAUAGUGAUGUUAUAUGAGUGAAUGCCCUUGGCAGCGUGUGCGUGUGG [SSTheophylB.aD]
stdout: 134

stdin: Identify measured apparent KD of K4 kissing-loop reporter corresponding to UUCCUAUUAUUAACACUAUAUACAACUGAAGGAGCGACAAUAAAGUCAGGUAGGUCGCAGAAUUAAUGAGUGAUGUUCAUUUUUA [JR_ExcArginiA_Sub013]
stdout: 124

stdin: Identify measured apparent KD of K4 kissing-loop reporter corresponding to AGGUUUUGCGGAGGAUAUGCACUGAGGAGGAGAAUAUAGUGAUGUUAUAUAAGAGGAAGGAGAAGAGUAGAAGGCCGUGAGGUUU [SSFMNB.N]
stdout: 124

stdin: Identify measured apparent KD of K4 kissing-loop reporter corresponding to CCUAUCUCAUACGAUACCAGUGAAAUAAUAUUUAUAAGCAGUGAUGUUGCAUUCCAAGAACACCCUUGGCAGCGUAUGGGAUAGG [Ex Theophylline B K4 19]
stdout: 189

stdin: Identify measured apparent KD of K4 kissing-loop reporter corresponding to UGACUUGCCUGAGGAUAUCUAGGAUAUGGAUAAAAUAAAAUAAUAAUGGAGUGAUGUUCCAGAAGGAGAGAAGGCAGGUAAGUCU [KL-XFMN-B16 #DoubleAptamer #SwitchBubble]
stdout: 170

stdin: Identify measured apparent KD of K4 kissing-loop reporter corresponding to AUGUACAUUCUCAGUGAUGUUGGGUUGUAACGAGGACCGGUACGGCCGCCACUCGGGAUGUGGUAUAUAGAUGUAUGUGUAGCAU [skye_SS_TA]
stdout: 512
